# System: Cell membrane
# TEST_DETAILS: Induction of cell membrane damage in human MCF7 cells assessed as protein leakage at 1 to 2 times IC50 measured after 0.5 to 6 hrs by UV based analysis
# Format: cell membranes
# APPLIED_CONDITIONS: time 0.5-6 hrs
Calls of active or inactive are those of the source. The calls are words filed in the database; no cut-off is given here. Non-standard residues stand in square brackets, D forms with d. Residues, ends and D or L forms follow the SMILES beside them. Aad = N[C@@H](CCCC(=O)O)C(=O)O
Would you mind answering with one of these outcomes? class 1 = active, class 0 = inactive

Write down the call the test reported for this compound. Item: CC(C)C[C@H](NC(=O)[C@H](CCCCN)NC(=O)[C@H](CCCCN)NC(=O)[C@H](CC(C)C)NC(=O)[C@H](CC(C)C)NC(=O)[C@H](CCCCN)NC(=O)[C@H](CCCCN)NC(=O)[C@H](CC(C)C)NC(=O)[C@H](CC(C)C)NC(=O)[C@H](CCCCN)NC(=O)[C@H](CCCCN)NC(=O)[C@H](CC(C)C)NC(=O)[C@@H](N)CC(C)C)C(=O)N[C@@H](CCC(=O)O)C(N)=O (H-LLKKLLKKLLKKLE-NH2)
class 1

Write down the call the test reported for this compound. Item: CC(C)C[C@H](NC(=O)[C@H](CCCCN)NC(=O)[C@H](CCCCN)NC(=O)[C@H](CC(C)C)NC(=O)[C@H](CC(C)C)NC(=O)[C@H](CCCCN)NC(=O)[C@H](CCCCN)NC(=O)[C@H](CC(C)C)NC(=O)[C@H](CC(C)C)NC(=O)[C@H](CCCCN)NC(=O)[C@H](CCCCN)NC(=O)[C@H](CC(C)C)NC(=O)[C@@H](N)CC(C)C)C(=O)N[C@@H](CCCC(=O)O)C(N)=O (H-LLKKLLKKLLKKL[Aad]-NH2)
class 1

Write down the call the test reported for this compound. Item: CC(C)C[C@H](NC(=O)[C@H](CC(C)C)NC(=O)[C@H](CCCCN)NC(=O)[C@H](CCCCN)NC(=O)[C@H](CC(C)C)NC(=O)[C@H](CC(C)C)NC(=O)[C@H](CCCCN)NC(=O)[C@H](CCCCN)NC(=O)[C@H](CC(C)C)NC(=O)[C@H](CC(C)C)NC(=O)[C@H](CCCCN)NC(=O)[C@H](CCCCN)NC(=O)[C@H](CC(C)C)NC(=O)[C@@H](N)CC(C)C)C(N)=O (H-LLKKLLKKLLKKLL-NH2)
class 1

Write down the call the test reported for this compound. Item: `CC(=O)O[C@H]1C(=O)[C@@]2(C)[C@H]([C@H](OC(=O)c3ccccc3)[C@]3(O)C[C@H](OC(=O)[C@H](O)[C@@H](NC(=O)c4ccccc4)c4ccccc4)C(C)=C1C3(C)C)[C@]1(OC(C)=O)CO[C@@H]1C[C@@H]2O`
class 0

Value source: ChEMBL document CHEMBL5584231
